target.or.test.system: Protein arginine N-methyltransferase 1 (Homo sapiens)
experiment.summary: human PRMT1 activity-probe blockers – biochemical, fluorescence polarization, primary screen (AID 652257)
measurement.setup: recombinant PRMT1, activity-based probe fluorescence polarization; at 2.79 µM; active compounds read high
In all, about 370,000 compounds went through this assay and about 4,800 (1.3%) were called active. The full list was thinned out, with actives kept by preference.
measurement.label: inhibition (%)
Value expressed in %; do not type the unit.

These recorded examples may help you get a feel for the data.
molecule=N#CCC(=O)NC(=O)NCC1CC1 measurement_label=inhibition unit_string=% recorded_result=1.85
molecule=O=C(OC12CC3CC(CC(C3)C1)C2)c1ccc(NCc2cc(O)ccc2O)cc1 measurement_label=inhibition unit_string=% recorded_result=19.5
molecule=CCS(=O)(=O)Nc1cc(C(=O)OC)ccc1C(=O)OC measurement_label=inhibition unit_string=% recorded_result=4.51
molecule=c1cncc(CNc2ccnc(-c3ccc4c(c3)OCO4)n2)c1 measurement_label=inhibition unit_string=% recorded_result=-4.36
molecule=COc1c(C(=O)N2CCCC2)ccc2ccccc12 measurement_label=inhibition unit_string=% recorded_result=1.75
molecule=COC(=O)C[n+]1cccc2ccccc21 measurement_label=inhibition unit_string=% recorded_result=38.1
molecule=COC(=O)c1c(C)oc2ccc(N(C(=O)Oc3ccccc3)S(=O)(=O)c3ccccc3)cc12 measurement_label=inhibition unit_string=% recorded_result=1.53
molecule=COC(=O)c1ccc(NCc2cc(O)ccc2O)cc1 measurement_label=inhibition unit_string=% recorded_result=28.5
molecule=O=C(NCc1ccco1)/C(=C/c1ccco1)NC(=O)c1ccccc1 measurement_label=inhibition unit_string=% recorded_result=7.1
molecule="O=C1OC(NC(=O)c2ccccc2)C(N2CCOCC2)=C1Cl (stereo not drawn)" measurement_label=inhibition unit_string=% recorded_result=0.25

Query: Specify inhibition for N#Cc1ccc(C(C(=O)NCc2ccccc2)n2c(=O)c(-c3ccco3)nc3ccccc32)cc1 (stereo not drawn) and stop.
Result: 20.9

Query: Specify inhibition for COC(=O)CNC(c1ccccc1Cl)c1cc(Br)ccc1NC(=O)CCN1CCOCC1 (stereo not drawn) and stop.
Result: 21.5

Query: Specify inhibition for O=C(NC(Cc1ccccc1)C(=O)O)/C(=C\c1ccccc1)NC(=O)c1ccco1 (stereo not drawn) and stop.
Result: -0.14

Query: Specify inhibition for `Cc1cc(NS(=O)(=O)c2ccc(NC(=S)NC(=O)c3ccc(F)cc3Cl)cc2)no1` and stop.
Result: -2.11

Query: Specify inhibition for COC(=O)C1CN(CC(C)C)CCS(=O)(=O)N1Cc1ccc(F)cc1 (stereo not drawn) and stop.
Result: 1.47

----------
target.or.test.system: Protein arginine N-methyltransferase 1 (Homo sapiens) (UniProt Q99873)
Sequence (Q99873 whole entry, looked up): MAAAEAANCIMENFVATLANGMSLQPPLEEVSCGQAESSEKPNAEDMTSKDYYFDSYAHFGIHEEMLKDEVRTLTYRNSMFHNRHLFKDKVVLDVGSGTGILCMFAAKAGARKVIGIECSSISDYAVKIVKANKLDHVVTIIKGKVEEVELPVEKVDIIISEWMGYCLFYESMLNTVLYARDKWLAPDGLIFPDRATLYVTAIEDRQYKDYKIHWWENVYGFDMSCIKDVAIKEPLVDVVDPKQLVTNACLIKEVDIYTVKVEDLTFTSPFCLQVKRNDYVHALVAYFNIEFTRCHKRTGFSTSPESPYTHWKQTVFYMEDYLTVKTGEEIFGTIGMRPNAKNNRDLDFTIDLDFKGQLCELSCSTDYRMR
experiment.summary: human PRMT1 activity-probe blockers – biochemical, fluorescence polarization, primary screen (AID 652257)
measurement.setup: recombinant PRMT1, activity-based probe fluorescence polarization; at 2.79 µM
Out of some 370,000 compounds screened, about 4,800 (1.3%) were called active.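 How the source made its calls: active means inhibition above about 21% made by adding two undisclosed values (limit read from the data); inactive means the rest.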 Shown is part of a subset that was picked to be rich in actives.
Pick one and only one: 1 for active, 0 for inactive

Solved entries:
molecule=CCOC(=O)[C@]12CCCC=C1N(Cc1ccc(OC)cc1)C(=O)[C@@H]2CC(=O)NCc1cccs1 label=0
molecule=Oc1ccc(/C=C/c2c(F)cccc2F)c2cccnc12 label=0
molecule=Cc1ccc(OCc2nnc(SC/C=C/c3ccccc3)n2Cc2ccco2)cc1 label=0
molecule=CCCCn1c(N)c(N(CCOC)C(=O)c2oc3ccc(OC)cc3c2C)c(=O)[nH]c1=O label=0
molecule=CCN(CC)C(=O)CC[C@@H]1CC[C@]2(CCCN(S(=O)(=O)C3CCCCC3)C2)O1 label=0

Query: Each molecule tested received a call. Report the one for `O=S(=O)(O)c1cc2onnc2c2ccccc12` .
Result: 1

Query: Each molecule tested received a call. Report the one for `COc1cc2c(cc1OC)C(Cc1cc(OC)c(OC)cc1[N+](=O)[O-])=NCC2` .
Result: 0

Query: Each molecule tested received a call. Report the one for Cc1cc(NC(=O)C(C)SCC(=O)Nc2ccccc2N2CCCCC2)no1 (stereo not drawn) .
Result: 0

Query: Each molecule tested received a call. Report the one for `COC1=C[C@H](C(=O)NCCNC(C)=O)[C@H](C)[C@@H](c2ccccc2)CC1=O` .
Result: 0

Query: Each molecule tested received a call. Report the one for `O=S1(=O)c2c(cccc2N2CCSCC2)Oc2ccccc2CN1Cc1cn(Cc2ccc(F)cc2)nn1` .
Result: 0

Query: Each molecule tested received a call. Report the one for `Cc1ccc(Cn2c(C)nc3c(c2=O)c2nc4ccccc4nc2n3Cc2ccco2)cc1` .
Result: 1

Query: Each molecule tested received a call. Report the one for O=C(Nc1cc(F)cc(F)c1)OC1CCC12CCC(c1ccccc1)CC2 (stereo not drawn) .
Result: 0

Query: Each molecule tested received a call. Report the one for `CCN(CC)S(=O)(=O)c1cccc(NC(=O)c2ccc(S(=O)(=O)N3CCCC3)cc2)c1` .
Result: 0

----------
target.or.test.system: Protein arginine N-methyltransferase 1 (Homo sapiens) (UniProt Q99873)
experiment.summary: human PRMT1 activity-probe blockers – biochemical, fluorescence polarization, primary screen (AID 652257)
measurement.setup: recombinant PRMT1, activity-based probe fluorescence polarization; at 2.79 µM
Hit rate of the full screen: of about 370,000 compounds, about 4,800 (1.3%) were called active.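 The calls were made as follows: active = inhibition above about 21% made by adding two undisclosed values (limit read from the data); inactive = the rest.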 The full list was thinned out, with actives kept by preference.
Pick one and only one: active, inactive

molecule=COC(=O)C1=C[C@@H](C(=O)OC)[C@@H]2C3=C(C(=O)[C@]2(C)NC(=O)c2ccccc2)[C@H](C)n2c(=O)n(C)c(=O)n2[C@@H]3C1 label=inactive
molecule=O=S1(=O)c2ccc(N3CCN(Cc4ccccc4F)CC3)cc2Oc2ccccc2CN1Cc1cn(Cc2ccc(Cl)cc2)nn1 label=inactive
molecule="CC(NC(=O)Nc1ccccc1)C(c1cccs1)N1CCN(c2ccccc2)CC1 (stereo unspecified)" label=inactive
molecule=COc1cc(NC(=S)NNC(=O)CC(C)C)c(OC)cc1Cl label=inactive

Query: Each molecule tested received a call. Report the one for `CC(=O)Nc1ccc(NS(=O)(=O)c2cc(C)sc2C)cc1` .
Result: inactive

Query: Each molecule tested received a call. Report the one for `O=C(CCSc1ccccc1)NCCSc1ccccn1` .
Result: inactive

Query: Each molecule tested received a call. Report the one for CC1CCC(NS(=O)(=O)c2ccc3c(c2)CC(=O)N3)CC1 (stereo unspecified) .
Result: inactive

Query: Each molecule tested received a call. Report the one for `COCC(=O)N[C@@H]1C[C@@H]2O[C@@H](CO)CC[C@@H]2O[C@@H]1CCc1ccc(-c2ccccc2)cc1` .
Result: inactive

Query: Each molecule tested received a call. Report the one for `Cn1sc(=O)c2cc(S(=O)(=O)NC3CC3)ccc21` .
Result: active

Query: Each molecule tested received a call. Report the one for Cc1ccccc1N1CC(C(=O)Nc2nnc(SCCC3OCCO3)s2)CC1=O (stereo unspecified) .
Result: inactive

Query: Each molecule tested received a call. Report the one for `O=C(COC(=O)c1ccccc1C(=O)N1CCN(c2ccccc2)CC1)NCc1ccccc1` .
Result: inactive

Query: Each molecule tested received a call. Report the one for `COc1ccc(C)cc1NC(=S)Nc1ccccc1SC` .
Result: inactive

Query: Each molecule tested received a call. Report the one for `COc1ccc(Cn2cc(COC(=O)N(C)Cc3ccccc3)nn2)cc1` .
Result: inactive

Query: Each molecule tested received a call. Report the one for `Cc1sc(NC(=S)NC(=O)c2cccs2)nc1-c1ccc(CC(C)C)cc1` .
Result: inactive

Query: Each molecule tested received a call. Report the one for `O=C(CSc1nnc(-c2ccccn2)n1-c1ccccc1)Nc1ccc2cn[nH]c2c1` .
Result: inactive

Query: Each molecule tested received a call. Report the one for `COc1ccc(CNS(=O)(=O)c2ccc(NC(=O)N3CCCCC3)cc2)cc1` .
Result: inactive

Query: Each molecule tested received a call. Report the one for CCCCCN1CCCCC(NC(=O)C(C)CCC)C1=O (stereo unspecified) .
Result: inactive

Query: Each molecule tested received a call. Report the one for `O=C(Cn1c(N2CCN(C/C=C/c3ccccc3)CC2)nc2ccccc21)c1ccccc1` .
Result: inactive

Query: Each molecule tested received a call. Report the one for `O=C(CN1CCN(c2ccccc2O)CC1)NC(=O)NCc1ccccc1` .
Result: inactive

Query: Each molecule tested received a call. Report the one for O=C(CNC(=O)c1ccccc1)OC(C(=O)Nc1cc([N+](=O)[O-])ccc1F)c1ccccc1 (stereo unspecified) .
Result: inactive

Query: Each molecule tested received a call. Report the one for `CC(=O)N(O)CCCCCNC(=O)CCC(=O)N(O)CCCCCNC(=O)CCC(=O)N(O)CCCCCNC(=O)CCC(=O)O` .
Result: inactive

----------
target.or.test.system: Protein arginine N-methyltransferase 1 (Homo sapiens)
experiment.summary: human PRMT1 activity-probe blockers – biochemical, fluorescence polarization, primary screen (AID 652257)
measurement.setup: recombinant PRMT1, activity-based probe fluorescence polarization; at 2.79 µM; active compounds read high
Out of some 370,000 compounds screened, about 4,800 (1.3%) were called active. This excerpt belongs to a sample that is enriched for actives.
measurement.label: inhibition

compound=CC(C)CNC(=O)OCc1cn(Cc2ccc(F)cc2)nn1 target_or_test_system="Protein arginine N-methyltransferase 1 (Homo sapiens)" recorded_result="-6.07% (inactive)"
compound=CN(C)S(=O)(=O)c1cccc(-c2nn(-c3ccccc3)cc2/C=C2\SC(=S)N(CC(=O)O)C2=O)c1 target_or_test_system="Protein arginine N-methyltransferase 1 (Homo sapiens)" recorded_result="28.2% (active)"
compound=N#CC1(Nc2ccc3c4c(cccc24)CC3)CCCCC1 target_or_test_system="Protein arginine N-methyltransferase 1 (Homo sapiens)" recorded_result="50.2% (active)"

Query: Specify inhibition for CN1CCc2nc(SC(C(=O)O)c3ccccc3)c(C#N)c(-c3cccs3)c2C1 (stereo not drawn) and stop.
Result: 11.9% (inactive)

Query: Specify inhibition for `COc1ccc(Cn2ccc3ccc(-c4ccc5ccn(Cc6ccccc6C)c5c4)cc32)cc1` and stop.
Result: 5.02% (inactive)

Query: Specify inhibition for `Cc1ccc(-c2nn(-c3ccccc3)cc2CN(Cc2ccccc2)C(=O)CCC(=O)O)o1` and stop.
Result: 30.5% (active)

Query: Specify inhibition for `COc1ccc(-c2cc(-c3nnc(SCc4ccc([N+](=O)[O-])cc4)n3N)[nH]n2)cc1` and stop.
Result: -4.36% (inactive)

Query: Specify inhibition for `O=C(COc1ccc(Cl)cc1[N+](=O)[O-])N1CCCCC1` and stop.
Result: -4.9% (inactive)

Query: Specify inhibition for COC(=O)C1(CCSC)NC(c2ccc(OC)cc2OC)C2C(=O)N(c3cccc(C(C)=O)c3)C(=O)C21 (stereo not drawn) and stop.
Result: -3.15% (inactive)

Query: Specify inhibition for COc1ccccc1CNC(=O)C1CCN(S(=O)(=O)c2ccc3c(c2)CC(C)N3C(=O)C2CC2)CC1 (stereo not drawn) and stop.
Result: 0.46% (inactive)

Query: Specify inhibition for `CC(C)N(Cc1nnc(-c2ccccc2Br)o1)C(=O)c1cc(Cl)nc2ccccc12` and stop.
Result: -5.25% (inactive)

Query: Specify inhibition for `CC(C)(C)c1ccc(CSc2nnc(-c3cccs3)o2)cc1` and stop.
Result: -1.14% (inactive)

Query: Specify inhibition for `COc1ccc(N2CCN(CCNS(=O)(=O)c3ccc(Cl)s3)CC2)cc1` and stop.
Result: -1.47% (inactive)

Query: Specify inhibition for O=C1CCCCC1Sc1ccc(Cl)cc1[N+](=O)[O-] (stereo not drawn) and stop.
Result: 48.8% (active)

Query: Specify inhibition for `COc1cccc(NC(=O)COC(=O)/C=C/c2ccco2)c1` and stop.
Result: 34.6% (active)

Query: Specify inhibition for CCc1ccc(NC2Nc3cc(C)nn3S2)cc1 (stereo not drawn) and stop.
Result: 30.6% (active)

Query: Specify inhibition for `CSc1ccccc1NC(=O)CN(C)CC(=O)Nc1ccc(Cl)cc1[N+](=O)[O-]` and stop.
Result: -1.57% (inactive)

Query: Specify inhibition for `COc1ccc(CNC(=O)CCC(=O)Nc2nnc(C(C)C)s2)cc1` and stop.
Result: 6.7% (inactive)

Query: Specify inhibition for `N#CC1(NC(=O)COC(=O)Cc2n[nH]c(=O)c3ccccc23)CCCCC1` and stop.
Result: 1.07% (inactive)

Query: Specify inhibition for O=C(CCl)NC1CCCCN(Cc2cccc(C(F)(F)F)c2)C1=O (stereo not drawn) and stop.
Result: 3.41% (inactive)

Query: Specify inhibition for `NS(=O)(=O)c1cccc(NC(=O)COC(=O)/C=C/c2ccco2)c1` and stop.
Result: 8.16% (inactive)

Query: Specify inhibition for `O=S(=O)(Cc1nnnn1-c1ccc(Br)cc1)c1ccc(F)cc1` and stop.
Result: -3.12% (inactive)

Query: Specify inhibition for Cc1cc(NC(=O)CSCC(=O)NC(C)c2ccccc2)no1 (stereo not drawn) and stop.
Result: -1.57% (inactive)
